- Tested on: brine shrimp larvae
- Method Notes: in vivo
- Study Conditions: brine shrimp larvae, 96 well plates, 24 h incubation

Compound: COc1ccc2ccc(=O)oc2c1C(C=O)=C(C)C
Relational Operator: >
LD50 (brine shrimp) (µg/mL): 500

Compound: C=C(C)C(CO)c1c(OC)ccc2ccc(=O)oc12 (stereo not shown)
Relational Operator: =
LD50 (brine shrimp) (µg/mL): 50.6

Compound: C=C(C)C(OC1OC(CO)C(O)C(O)C1O)C(O)c1c(OC)ccc2ccc(=O)oc12 (stereo not shown)
Relational Operator: =
LD50 (brine shrimp) (µg/mL): 29.1

Compound: COc1cc2oc(=O)ccc2cc1C=O
Relational Operator: >
LD50 (brine shrimp) (µg/mL): 500

Compound: C=C(C)C(O)C(OC)c1c(OC)ccc2ccc(=O)oc12 (stereo not shown)
Relational Operator: =
LD50 (brine shrimp) (µg/mL): 158.5

Compound: COc1ccc2ccc(=O)oc2c1/C=C/C(C)(C)O
Relational Operator: =
LD50 (brine shrimp) (µg/mL): 199.3

Compound: COc1ccc2ccc(=O)oc2c1/C=C/C(CO)COC(=O)CC(C)C (stereo not shown)
Relational Operator: =
LD50 (brine shrimp) (µg/mL): 6.8
